Target: human GPR40 (Homo sapiens, UniProt O14842, R211H)
Sequence (O14842 whole entry R211H): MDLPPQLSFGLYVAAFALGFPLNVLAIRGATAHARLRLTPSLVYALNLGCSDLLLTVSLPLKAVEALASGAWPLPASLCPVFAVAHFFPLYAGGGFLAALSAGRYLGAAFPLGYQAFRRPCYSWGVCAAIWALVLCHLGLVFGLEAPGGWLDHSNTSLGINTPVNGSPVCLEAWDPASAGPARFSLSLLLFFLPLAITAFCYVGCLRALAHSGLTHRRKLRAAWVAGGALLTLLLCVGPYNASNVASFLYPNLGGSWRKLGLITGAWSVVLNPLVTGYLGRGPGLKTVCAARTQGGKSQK
Experiment: Measurement of GPR40 agonistic activity (intracellular calcium, FLIPR, CHO cell line expressing human GPR40)
Conditions: change in fluorescence intensity one minute after measurement
hey, just use True if measured EC50 is less than 300 nM, otherwise False

{"LINE_NOTATION": "COC[C@@H](O)COc1cc(C)c(-c2cccc(COc3ccc(Cn4oc(=O)[n-]c4=O)cc3)c2C)c(C)c1.[Na+]", "TESTED_ON": "human GPR40 (Homo sapiens, UniProt O14842, R211H)", "CATEGORY_LABEL": "False"}
{"LINE_NOTATION": "Cc1cc(-c2cccc(CNc3ccc(Cn4oc(=O)[n-]c4=O)cc3)c2C)c(C)cc1OC[C@@H](O)CO.[Na+]", "TESTED_ON": "human GPR40 (Homo sapiens, UniProt O14842, R211H)", "CATEGORY_LABEL": "True"}
{"LINE_NOTATION": "Cc1cc(OCC[C@@H](C)O)nc(C)c1-c1cccc(CNc2ccc(Cn3oc(=O)[n-]c3=O)cc2)c1C.[Na+]", "TESTED_ON": "human GPR40 (Homo sapiens, UniProt O14842, R211H)", "CATEGORY_LABEL": "True"}
{"LINE_NOTATION": "Cc1cc(OC[C@@H](O)CO)cc(C)c1-c1cccc(COc2ccc(Cn3oc(=O)[n-]c3=O)cc2)c1C.[Na+]", "TESTED_ON": "human GPR40 (Homo sapiens, UniProt O14842, R211H)", "CATEGORY_LABEL": "False"}
{"LINE_NOTATION": "Cc1c(COc2ccc(Cn3oc(=O)[n-]c3=O)cc2)cccc1-c1cccc(OCCC(C)(C)O)c1C.[Na+]", "TESTED_ON": "human GPR40 (Homo sapiens, UniProt O14842, R211H)", "CATEGORY_LABEL": "True"}
{"LINE_NOTATION": "Cc1cc(OCC[C@@H](C)O)nc(C)c1-c1cccc(COc2ccc(Cn3oc(=O)[n-]c3=O)cc2)c1C.[Na+]", "TESTED_ON": "human GPR40 (Homo sapiens, UniProt O14842, R211H)", "CATEGORY_LABEL": "True"}
{"LINE_NOTATION": "Cc1cc(OCCO)cc(C)c1-c1cccc(CNc2ccc(Cn3oc(=O)[n-]c3=O)cn2)c1C.[Na+]", "TESTED_ON": "human GPR40 (Homo sapiens, UniProt O14842, R211H)", "CATEGORY_LABEL": "True"}

----------
System: normal mice
Assay: Single oral glucose tolerance test on normal mice
Assay type: in vivo
Conditions: Mus musculus, 0.5 h, read-out: Reduction rate of blood glucose level (%)
Label rule, in plain words: inhibition in vivo at 10 mg/kg of 30% and up is 1, under 30% is -1.

{"MOLECULE": "CO[C@@H](CO)COc1cc(C)c(-c2cccc(COc3ccc(Cn4oc(=O)[n-]c4=O)cc3)c2C)c(C)c1.[Na+] [Example 74]", "CATEGORY_LABEL": -1}
{"MOLECULE": "Cc1cc(-c2cccc(COc3ccc(Cn4oc(=O)[n-]c4=O)cc3)c2C)c(C)cc1OCCO.[Na+] [Example 63]", "CATEGORY_LABEL": -1}
{"MOLECULE": "Cc1cc(OCCO)cc(C)c1-c1cccc(CNc2ccc(Cn3oc(=O)[n-]c3=O)cc2)c1C.[Na+] [Example 70]", "CATEGORY_LABEL": 1}
{"MOLECULE": "Cc1cc(OCC[C@@H](C)O)cc(C)c1-c1cccc(COc2ccc(Cn3oc(=O)[n-]c3=O)cn2)c1C.[Na+] [Example 44]", "CATEGORY_LABEL": 1}
{"MOLECULE": "CCC(=O)NCCCOc1cc(C)c(-c2cccc(COc3ccc(Cn4oc(=O)[n-]c4=O)cc3)c2C)c(C)c1.[Na+] [Example 119]", "CATEGORY_LABEL": -1}
{"MOLECULE": "Cc1cc(OCCO)cc(C)c1-c1cccc(CNc2ccc(Cn3oc(=O)[n-]c3=O)cn2)c1C.[Na+] [Example 80]", "CATEGORY_LABEL": -1}
{"MOLECULE": "Cc1cc(OCCO)c(F)cc1-c1cccc(COc2ccc(Cn3oc(=O)[n-]c3=O)cc2)c1C.[Na+] [Example 94]", "CATEGORY_LABEL": 1}
{"MOLECULE": "Cc1cc(-c2cccc(CNc3ccc(Cn4oc(=O)[n-]c4=O)cc3)c2C)c(C)cc1OC[C@H](O)CO.[Na+] [Example 97]", "CATEGORY_LABEL": -1}
{"MOLECULE": "Cc1cc(OCC[C@@H](C)O)nc(C)c1-c1cccc(COc2ccc(Cn3oc(=O)[n-]c3=O)cc2)c1C.[Na+] [Example 84]", "CATEGORY_LABEL": 1}
{"MOLECULE": "COC[C@@H](O)COc1cc(C)c(-c2cccc(COc3ccc(Cn4oc(=O)[n-]c4=O)cc3)c2C)c(C)c1.[Na+] [Example 56]", "CATEGORY_LABEL": -1}
{"MOLECULE": "Cc1cc(OCCCNC(=O)C2CC2)cc(C)c1-c1cccc(COc2ccc(Cn3oc(=O)[n-]c3=O)cc2)c1C.[Na+] [Example 21]", "CATEGORY_LABEL": -1}
{"MOLECULE": "Cc1c(COc2ccc(Cn3oc(=O)[n-]c3=O)cc2)cccc1-c1cccc(OCCC(C)(C)O)c1C.[Na+] [Example 27]", "CATEGORY_LABEL": 1}

----------
Target: human GPR40 (Homo sapiens, UniProt O14842, R211H)
Assay: Measurement of GPR40 agonistic activity (intracellular calcium, FLIPR, CHO cell line expressing human GPR40)
Conditions: change in fluorescence intensity one minute after measurement
READOUT: log10 of EC50 (log10 of the value in nM)

{"LINE_NOTATION": "Cc1cc(OC[C@H](O)CO)cc(C)c1-c1cccc(CNc2ccc(Cn3oc(=O)[n-]c3=O)cc2)c1C.[Na+]", "log10 of EC50": 1.84}
{"LINE_NOTATION": "Cc1cc(-c2cccc(COc3ccc(Cn4oc(=O)[n-]c4=O)cc3)c2C)c(C)cc1OCCO.[Na+]", "log10 of EC50": 2.58}
{"LINE_NOTATION": "Cc1cc(-c2cccc(CNc3ccc(Cn4oc(=O)[n-]c4=O)cc3)c2C)c(C)cc1OC[C@H](O)CO.[Na+]", "log10 of EC50": 2.28}
{"LINE_NOTATION": "Cc1c(CNc2ccc(Cn3oc(=O)[nH]c3=O)cc2)cccc1-c1cccc(OCCO)c1C", "log10 of EC50": 1.97}
{"LINE_NOTATION": "Cc1cc(OCC[C@H](C)O)cc(C)c1-c1cccc(COc2ccc(Cn3oc(=O)[n-]c3=O)cn2)c1C.[Na+]", "log10 of EC50": 2.45}
{"LINE_NOTATION": "Cc1cc(OCCO)c(F)cc1-c1cccc(CNc2ccc(Cn3oc(=O)[n-]c3=O)cc2)c1C.[Na+]", "log10 of EC50": 2.62}
{"LINE_NOTATION": "Cc1cc(-c2cccc(COc3ccc(Cn4oc(=O)[n-]c4=O)cc3)c2C)c(C)cc1OCCC(C)(C)O.[Na+]", "log10 of EC50": 1.84}
{"LINE_NOTATION": "CO[C@@H](CO)COc1cc(C)c(-c2cccc(COc3ccc(Cn4oc(=O)[n-]c4=O)cc3)c2C)c(C)c1.[Na+]", "log10 of EC50": 2.51}
{"LINE_NOTATION": "Cc1cc(OCCC(C)(C)O)nc(C)c1-c1cccc(COc2ccc(Cn3oc(=O)[n-]c3=O)cc2)c1C.[Na+]", "log10 of EC50": 2.20}
{"LINE_NOTATION": "Cc1cc(OCC[C@@H](O)CO)cc(C)c1-c1cccc(CNc2ccc(Cn3oc(=O)[n-]c3=O)cc2)c1C.[Na+]", "log10 of EC50": 2.36}
{"LINE_NOTATION": "Cc1cc(OC[C@@H](O)CO)cc(C)c1-c1cccc(CNc2ccc(Cn3oc(=O)[n-]c3=O)cc2)c1C.[Na+]", "log10 of EC50": 1.34}
{"LINE_NOTATION": "Cc1c(COc2ccc(Cn3oc(=O)[n-]c3=O)cc2)cccc1-c1ccc(OCCC(C)(C)O)c(C)c1C.[Na+]", "log10 of EC50": 1.83}
{"LINE_NOTATION": "Cc1cc(OCCCNC(=O)C2CC2)cc(C)c1-c1cccc(COc2ccc(Cn3oc(=O)[n-]c3=O)cc2)c1C.[Na+]", "log10 of EC50": 2.78}
{"LINE_NOTATION": "Cc1cc(-c2cccc(CNc3ccc(Cn4oc(=O)[n-]c4=O)cc3)c2C)c(C)nc1OCCO.[Na+]", "log10 of EC50": 2.04}
{"LINE_NOTATION": "CCC(=O)NCCCOc1cc(C)c(-c2cccc(COc3ccc(Cn4oc(=O)[n-]c4=O)cc3)c2C)c(C)c1.[Na+]", "log10 of EC50": 2.91}
{"LINE_NOTATION": "Cc1cc(OCCO)c(F)cc1-c1cccc(COc2ccc(Cn3oc(=O)[n-]c3=O)cc2)c1C.[Na+]", "log10 of EC50": 2.81}
{"LINE_NOTATION": "Cc1cc(OCC[C@@H](C)O)cc(C)c1-c1cccc(COc2ccc(Cn3oc(=O)[n-]c3=O)cn2)c1C.[Na+]", "log10 of EC50": 2.28}
{"LINE_NOTATION": "Cc1cc(OCCO)cc(C)c1-c1cccc(CNc2ccc(Cn3oc(=O)[n-]c3=O)cc2)c1C.[Na+]", "log10 of EC50": 1.85}
{"LINE_NOTATION": "Cc1cc(OC[C@H](O)CO)cc(C)c1-c1cccc(COc2ccc(Cn3oc(=O)[n-]c3=O)cc2)c1C.[Na+]", "log10 of EC50": 2.61}
{"LINE_NOTATION": "Cc1cc(OCC[C@H](O)CO)cc(C)c1-c1cccc(CNc2ccc(Cn3oc(=O)[n-]c3=O)cc2)c1C.[Na+]", "log10 of EC50": 2.36}
